Counter-ions that a name gives are not always drawn.
Parameter IC50, tested on RON (human) (Homo sapiens), listed per item.
Sequence (Q04912 25-1400): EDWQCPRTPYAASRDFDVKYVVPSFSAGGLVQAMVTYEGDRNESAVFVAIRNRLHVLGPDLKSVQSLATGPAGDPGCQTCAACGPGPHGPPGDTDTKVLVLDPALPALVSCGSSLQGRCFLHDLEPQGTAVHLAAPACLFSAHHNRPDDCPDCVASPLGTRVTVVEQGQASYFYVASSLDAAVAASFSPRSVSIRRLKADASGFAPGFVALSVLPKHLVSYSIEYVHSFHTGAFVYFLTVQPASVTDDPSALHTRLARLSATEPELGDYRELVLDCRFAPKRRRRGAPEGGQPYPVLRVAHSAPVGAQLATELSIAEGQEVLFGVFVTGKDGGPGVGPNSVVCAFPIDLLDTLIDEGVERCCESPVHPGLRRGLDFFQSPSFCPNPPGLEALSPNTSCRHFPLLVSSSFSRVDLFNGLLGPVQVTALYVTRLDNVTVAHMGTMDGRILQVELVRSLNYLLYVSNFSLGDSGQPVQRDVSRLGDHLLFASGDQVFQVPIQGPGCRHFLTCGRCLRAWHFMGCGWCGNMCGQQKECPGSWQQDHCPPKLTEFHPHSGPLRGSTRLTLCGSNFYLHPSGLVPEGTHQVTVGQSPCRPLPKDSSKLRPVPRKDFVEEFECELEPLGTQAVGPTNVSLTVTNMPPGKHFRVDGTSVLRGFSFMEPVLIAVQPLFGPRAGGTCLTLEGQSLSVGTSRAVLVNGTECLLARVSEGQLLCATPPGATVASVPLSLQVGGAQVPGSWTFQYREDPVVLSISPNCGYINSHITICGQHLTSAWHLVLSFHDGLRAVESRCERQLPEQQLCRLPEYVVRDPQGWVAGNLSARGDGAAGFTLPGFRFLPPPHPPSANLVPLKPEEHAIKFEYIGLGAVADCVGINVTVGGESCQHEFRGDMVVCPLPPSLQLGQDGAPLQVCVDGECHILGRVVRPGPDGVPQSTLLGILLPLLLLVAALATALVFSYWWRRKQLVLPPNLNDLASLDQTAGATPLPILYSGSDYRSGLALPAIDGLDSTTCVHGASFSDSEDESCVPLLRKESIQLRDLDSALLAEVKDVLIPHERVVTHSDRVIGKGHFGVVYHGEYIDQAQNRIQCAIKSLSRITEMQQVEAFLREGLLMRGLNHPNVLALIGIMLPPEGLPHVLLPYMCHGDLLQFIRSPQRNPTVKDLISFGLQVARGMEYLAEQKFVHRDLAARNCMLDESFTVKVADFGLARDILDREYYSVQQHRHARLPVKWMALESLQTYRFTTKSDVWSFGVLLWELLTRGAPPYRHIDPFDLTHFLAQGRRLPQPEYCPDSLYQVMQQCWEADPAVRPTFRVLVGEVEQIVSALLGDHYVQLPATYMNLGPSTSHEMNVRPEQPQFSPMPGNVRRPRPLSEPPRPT

{"molecule": "C[C@@H]1CN(C(=O)c2cccc(-c3cnc(N)c(-c4nc5ccccc5s4)c3)c2)C[C@H](C)N1C", "assay value": "1000 to 20000 nM"}

Query: Any idea what IC50 was measured for Nc1ncc(-c2cc3ccccc3[nH]2)cc1-c1cc2c(Cl)ccc(F)c2cn1 ?
Result: 1000 to 20000 nM

Query: What do you get for NC(=O)N1CCC(n2cc(-c3cnc(N)c(-c4nc5ccccc5s4)c3)cn2)CC1 [Example 116, bis-hydrochloride] ?
Result: 100 to 1000 nM
